Listing: IC50 of selected compounds
Molecular target: recombinant full length LRRK2 (Homo sapiens)
Construct: A BacMam virus expressing full length recombinant LRRK2 was purchased from Invitrogen; host or cells: SH-SY5Y human neuroblastoma cells transduced with BacMam LRRK2 virus (MOI 50)
Sequence (Q5S007 whole entry): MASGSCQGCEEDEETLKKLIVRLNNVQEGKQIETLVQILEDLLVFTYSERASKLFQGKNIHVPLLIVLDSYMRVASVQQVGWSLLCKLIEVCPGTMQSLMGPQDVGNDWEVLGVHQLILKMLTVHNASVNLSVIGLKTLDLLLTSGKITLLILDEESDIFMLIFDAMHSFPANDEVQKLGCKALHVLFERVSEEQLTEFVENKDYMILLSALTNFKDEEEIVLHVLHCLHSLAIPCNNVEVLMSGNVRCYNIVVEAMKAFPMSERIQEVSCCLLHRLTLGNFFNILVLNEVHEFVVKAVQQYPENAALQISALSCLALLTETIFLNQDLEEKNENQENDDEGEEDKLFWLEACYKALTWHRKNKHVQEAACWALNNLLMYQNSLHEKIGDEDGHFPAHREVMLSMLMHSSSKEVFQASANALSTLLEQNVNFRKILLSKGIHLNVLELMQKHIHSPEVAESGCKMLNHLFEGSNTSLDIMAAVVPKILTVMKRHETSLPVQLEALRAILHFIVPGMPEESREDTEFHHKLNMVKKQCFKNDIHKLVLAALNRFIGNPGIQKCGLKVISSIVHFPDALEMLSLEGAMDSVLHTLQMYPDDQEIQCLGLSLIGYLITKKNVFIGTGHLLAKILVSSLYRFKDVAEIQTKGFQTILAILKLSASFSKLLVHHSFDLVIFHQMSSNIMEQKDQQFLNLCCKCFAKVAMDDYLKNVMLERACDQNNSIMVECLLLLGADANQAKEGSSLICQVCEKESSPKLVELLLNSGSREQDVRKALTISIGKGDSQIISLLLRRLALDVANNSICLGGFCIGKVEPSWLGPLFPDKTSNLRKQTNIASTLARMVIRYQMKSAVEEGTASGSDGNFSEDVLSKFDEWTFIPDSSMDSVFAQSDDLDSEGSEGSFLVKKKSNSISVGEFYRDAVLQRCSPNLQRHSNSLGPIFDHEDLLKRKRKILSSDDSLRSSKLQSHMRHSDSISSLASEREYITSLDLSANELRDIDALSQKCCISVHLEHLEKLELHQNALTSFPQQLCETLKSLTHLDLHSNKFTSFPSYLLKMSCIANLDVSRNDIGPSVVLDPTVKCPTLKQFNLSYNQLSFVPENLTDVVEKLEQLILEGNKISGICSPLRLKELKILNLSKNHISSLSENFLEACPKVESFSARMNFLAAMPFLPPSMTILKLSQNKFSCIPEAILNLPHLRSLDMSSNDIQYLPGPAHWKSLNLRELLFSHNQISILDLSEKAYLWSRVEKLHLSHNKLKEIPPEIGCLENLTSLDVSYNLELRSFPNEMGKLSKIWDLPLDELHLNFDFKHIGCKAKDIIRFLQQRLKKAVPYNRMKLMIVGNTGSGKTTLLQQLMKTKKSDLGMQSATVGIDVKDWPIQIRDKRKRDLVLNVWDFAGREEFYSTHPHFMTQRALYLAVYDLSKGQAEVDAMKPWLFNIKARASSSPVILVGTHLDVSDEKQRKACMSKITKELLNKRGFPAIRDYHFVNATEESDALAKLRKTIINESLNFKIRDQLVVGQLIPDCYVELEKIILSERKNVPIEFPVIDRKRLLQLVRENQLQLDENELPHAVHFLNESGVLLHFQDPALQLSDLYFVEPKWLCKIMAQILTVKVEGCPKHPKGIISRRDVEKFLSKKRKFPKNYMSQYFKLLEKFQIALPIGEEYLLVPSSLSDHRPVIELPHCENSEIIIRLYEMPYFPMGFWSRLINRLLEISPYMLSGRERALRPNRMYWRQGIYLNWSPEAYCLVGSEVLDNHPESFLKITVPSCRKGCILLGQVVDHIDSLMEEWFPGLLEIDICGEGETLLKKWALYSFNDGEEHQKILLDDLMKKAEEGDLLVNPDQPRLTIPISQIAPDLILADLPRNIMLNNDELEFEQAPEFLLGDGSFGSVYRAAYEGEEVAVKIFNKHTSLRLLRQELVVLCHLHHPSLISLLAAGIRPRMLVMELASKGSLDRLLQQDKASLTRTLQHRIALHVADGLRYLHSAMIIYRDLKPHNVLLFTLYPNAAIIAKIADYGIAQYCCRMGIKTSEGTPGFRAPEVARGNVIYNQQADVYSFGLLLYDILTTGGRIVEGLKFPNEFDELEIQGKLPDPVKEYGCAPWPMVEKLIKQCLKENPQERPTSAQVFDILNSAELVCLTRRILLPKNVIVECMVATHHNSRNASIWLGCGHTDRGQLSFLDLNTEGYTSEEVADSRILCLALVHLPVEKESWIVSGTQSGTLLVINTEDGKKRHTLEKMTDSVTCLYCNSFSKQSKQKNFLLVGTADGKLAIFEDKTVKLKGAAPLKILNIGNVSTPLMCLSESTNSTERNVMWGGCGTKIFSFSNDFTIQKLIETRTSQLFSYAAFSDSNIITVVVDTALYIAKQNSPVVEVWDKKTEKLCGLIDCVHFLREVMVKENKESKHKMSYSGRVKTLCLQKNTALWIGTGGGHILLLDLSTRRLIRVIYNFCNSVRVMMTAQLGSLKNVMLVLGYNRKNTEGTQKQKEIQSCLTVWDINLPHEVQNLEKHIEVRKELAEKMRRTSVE
Experiment: Recombinant cellular LRRK2 AlphaScreen assay
Type: cell-based
Settings: LRRK2 Ser935 phosphorylation, SH-SY5Y cells over-expressing recombinant full length LRRK2; read-out: pIC50 in the recombinant cellular LRRK2 AlphaScreen assay (converted)

Some solved entries appear below for comparison.
COc1nc(N2CC(O)C2)cc(-n2ncc3cc(Cl)c(C4CCN(C5CCOC5)CC4)cc32)n1 (single isomer, unassigned) [Example E29] :: ≤ 0.01 µM
COc1nc(N2CCO[C@@H](CO)C2)cc(-n2ncc3cc(C)c(C4CCN(C5CCOC5)CC4F)cc32)n1 (single isomer, unassigned) [Example E120] :: ≤ 0.01 µM

Next compound, please.
State the recorded IC50 for this entry: COc1nc(N2CCOCC2)cc(-n2ncc3cc(C)c(C4CCN(C5CCOC5)CC4F)cc32)n1 (single isomer, unassigned) [Example E125]
≤ 0.01 µM
